Origin of measurements: PubChem BioAssay

system: Hepatitis C virus NS3 helicase; assay: HCV NS3 helicase inhibitors, primary screen, biochemical, fluorescence polarization, LOPAC1280 library (AID 687035); details: Purified HCV NS3 helicase, Cy5-dT15 ssDNA binding fluorescence polarization; active compounds read high; concentration not given here
Measured inhibition, listed per entry for reference.

Compound	Tested system	Scale unit	inhibition
Cn1c(CCCC(=O)O)nc2cc(N(CCCl)CCCl)ccc21	Hepatitis C virus NS3 helicase	%	-4
C[N+]1(C)CCN(c2ccccc2)CC1	Hepatitis C virus NS3 helicase	%	-1
COc1ccc2c(c1OC)C(=O)O[C@H]2[C@@H]1c2cc3c(cc2CCN1C)OCO3	Hepatitis C virus NS3 helicase	%	-3
CC(CCc1ccccc1)NC(C)C(O)c1ccc(O)cc1 (stereo not given)	Hepatitis C virus NS3 helicase	%	-5
CC(C)[C@H]1CN[C@H](C(=O)O)[C@H]1CC(=O)O	Hepatitis C virus NS3 helicase	%	1
C[C@H](N)CN1CCc2ccc(Br)cc21	Hepatitis C virus NS3 helicase	%	-3
C[C@H](Cc1ccc2c(c1)OC(C(=O)O)(C(=O)O)O2)NC[C@H](O)c1cccc(Cl)c1	Hepatitis C virus NS3 helicase	%	-3
NC(CP(=O)(O)O)C(=O)O (stereo not given)	Hepatitis C virus NS3 helicase	%	-2
C[C@]12N[C@H](Cc3ccccc31)c1ccccc12	Hepatitis C virus NS3 helicase	%	-1
NC1CCc2cc(O)c(O)cc2C1 (stereo not given)	Hepatitis C virus NS3 helicase	%	-1
O=C(O)c1cc[c]([Hg][Cl])cc1	Hepatitis C virus NS3 helicase	%	-5
COc1cc(CC(C)N)c(OC)cc1I (stereo not given)	Hepatitis C virus NS3 helicase	%	-3
O=S1(=O)N(CCN2CC=C(c3c[nH]c4cc(F)ccc34)CC2)c2cccc3c2N1CCC3	Hepatitis C virus NS3 helicase	%	0
CC(=O)NCCc1c[nH]c2ccccc12	Hepatitis C virus NS3 helicase	%	-3
O=C(O)c1nn(Cc2ccc(Cl)cc2Cl)c2ccccc12	Hepatitis C virus NS3 helicase	%	-4
CC12CCC3C(CCC4=C(O)C(=O)CCC43C)C1CCC2=O (stereo not given)	Hepatitis C virus NS3 helicase	%	-3
CC(=O)[C@H]1CCC2C3CC[C@H]4C[C@H](O)CC[C@]4(C)C3CC[C@@]21C (stereo not given in full)	Hepatitis C virus NS3 helicase	%	0
CC(Cc1ccc(OCC(=O)O)cc1)NCC(O)c1cccc(Cl)c1 (stereo not given)	Hepatitis C virus NS3 helicase	%	-4
C=CCN1CC[C@]23c4c5ccc(O)c4O[C@@H]2/C(=N\N=C2\CC[C@@]4(O)C6Cc7ccc(O)c8c7[C@@]4(CCN6CC=C)[C@@H]2O8)CC[C@@]3(O)C1C5	Hepatitis C virus NS3 helicase	%	-6
CC(N)c1cccc(Cl)c1Cl (stereo not given)	Hepatitis C virus NS3 helicase	%	-2
COC(=O)N1CCN(C(=O)Cc2ccc(Cl)c(Cl)c2)C(CN2CCCC2)C1 (stereo not given)	Hepatitis C virus NS3 helicase	%	-4
Cc1ccc(S(=O)(=O)N[C@@H](CCCCN)C(=O)CCl)cc1	Hepatitis C virus NS3 helicase	%	-3
C[C@@H]1O[C@H](C[N+](C)(C)C)C[C@H]1O	Hepatitis C virus NS3 helicase	%	-2
COC(=O)[C@@H](N)CCCN=C(N)N[N+](=O)[O-]	Hepatitis C virus NS3 helicase	%	-2
CCCn1c(C)c(C(=O)c2ccc3ccccc3c2)c2ccccc21	Hepatitis C virus NS3 helicase	%	-4
NNC(N)=O	Hepatitis C virus NS3 helicase	%	-3
C[C@H](N)Cc1cccc(C(F)(F)F)c1	Hepatitis C virus NS3 helicase	%	-3
C=CCN1CCc2cccc3c2[C@H]1Cc1ccc(O)c(O)c1-3	Hepatitis C virus NS3 helicase	%	-3
CC(=O)c1c(O)c(C)c(O)c(Cc2c(O)c3c(c(C(=O)/C=C/c4ccccc4)c2O)OC(C)(C)C=C3)c1O	Hepatitis C virus NS3 helicase	%	-3
c1ccc(CCCN2CCN(CCOC(c3ccccc3)c3ccccc3)CC2)cc1	Hepatitis C virus NS3 helicase	%	0
Cc1nccc2c1[nH]c1ccccc12	Hepatitis C virus NS3 helicase	%	-1
CN1CCc2cccc(Cl)c2CC1	Hepatitis C virus NS3 helicase	%	-4
[Cl-].[Cl][Pt].[NH2-].[NH2-].c1ccncc1	Hepatitis C virus NS3 helicase	%	-3
c1ccc2cc(CC3=NCCN3)ccc2c1	Hepatitis C virus NS3 helicase	%	-3
Oc1ccc2c3c1O[C@H]1c4oc5ccccc5c4C[C@@]4(O)C(C2)N(CC2CC2)CCC314 (stereo not given in full)	Hepatitis C virus NS3 helicase	%	-1
CC(NC(C)(C)C)C(=O)c1cccc(Cl)c1 (stereo not given)	Hepatitis C virus NS3 helicase	%	-1
CCOC(=O)c1ncn2c1[C@@H]1CCCN1C(=O)c1cc(OC)ccc1-2	Hepatitis C virus NS3 helicase	%	0
CCCN1CCc2cc(O)cc3c2[C@H]1Cc1ccc(O)c(O)c1-3	Hepatitis C virus NS3 helicase	%	1
NC(N)=NOCCC(N)C(=O)O (stereo not given)	Hepatitis C virus NS3 helicase	%	0
NCCc1c[nH]c2ccc(C(N)=O)cc12	Hepatitis C virus NS3 helicase	%	-3
N#CC(C#N)=Cc1ccc(O)c(O)c1	Hepatitis C virus NS3 helicase	%	0
CC12NC(Cc3ccccc31)c1ccccc12 (stereo not given)	Hepatitis C virus NS3 helicase	%	-3
COc1ccc2[nH]cc(CCN)c2c1	Hepatitis C virus NS3 helicase	%	-2
CC(C)NC(C)Cc1ccc(I)cc1 (stereo not given)	Hepatitis C virus NS3 helicase	%	-1
NC1CC1c1ccccc1 (stereo not given)	Hepatitis C virus NS3 helicase	%	-1
Clc1ccc(N2CC3CCC(C2)N3)nn1	Hepatitis C virus NS3 helicase	%	-5
CC(C)(C)c1cc(C=C(C#N)C#N)cc(C(C)(C)C)c1O	Hepatitis C virus NS3 helicase	%	0
NCCc1ccc(O)cc1	Hepatitis C virus NS3 helicase	%	-3
Cc1o[nH]c(=O)c1CC(N)C(=O)O (stereo not given)	Hepatitis C virus NS3 helicase	%	-4
CN1CCc2cc(O)cc3c2[C@H]1Cc1ccc(O)c(O)c1-3	Hepatitis C virus NS3 helicase	%	-2
